# System: Arachidonate-Induced Bronchospasm (cyclooxygenase)
# TEST NAME: Pulmonary Mechanics Assay: arachidonate-induced bronchospasm without indomethacin (indicative of cyclooxygenase inhibition)
# Format: in vivo, male Hartley guinea pigs
# SETUP CONDITIONS: Cavia porcellus, ID dosing, 50 mg/kg, guinea pig, read-out: Inhibition of Arachidonate-Induced Bronchospasm (ID Dosing), % Inh. without Indomethacin
Listed below: inhibition in vivo at 50 mg/kg values for each entry.
Answer format: numeric, % implied, no suffix.

Prompt line: Any idea what its inhibition in vivo at 50 mg/kg is? The molecule is CCCCCCCCCCNC(=O)N(O)CCCC(=O)OCC
Response line: -89

Prompt line: Any idea what its inhibition in vivo at 50 mg/kg is? The molecule is CN(O)C(=O)NCCCCCCOc1ccc(-c2ccccc2)cc1
Response line: -33

Prompt line: Any idea what its inhibition in vivo at 50 mg/kg is? The molecule is CCCCCCCCCCCCCCN(O)C(=O)N(C)C
Response line: -26
